- test.target: N-His-Tb-BIR3 (241-356, XIAP) (Homo sapiens (Human))
- Sequence (P98170 241-356): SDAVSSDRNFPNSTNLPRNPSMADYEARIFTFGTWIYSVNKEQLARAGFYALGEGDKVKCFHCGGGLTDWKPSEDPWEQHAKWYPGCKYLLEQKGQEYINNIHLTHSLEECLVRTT
- assay: biochemical
- Assay type: binding
- reported.conditions: fluoresceinated modified SMAC peptide, fluorescence polarization; read-out: XIAP BIR3 FPA IC50
Examples of compounds with documented pIC50 follow.
Quick note: pIC50 means taking -log10 of the concentration in moles per liter.

Please review the following examples before continuing.
>  <compound>
CN[C@@H](C)C(=O)N[C@H](C(=O)N1Cc2cc(NC(=O)C3CC4(C3)CC(C(=O)N[C@H]3C[C@@H](C(=O)N[C@@H]5CCCc6ccccc65)N(C(=O)[C@@H](NC(=O)[C@H](C)NC)C(C)(C)C)C3)C4)ccc2C[C@H]1C(=O)N[C@@H]1CCCc2ccccc21)C(C)(C)C (stereo partly shown) [Example 7]

>  <numeric.result>
7.08

$$$$
>  <compound>
CN[C@@H](C)C(=O)N[C@H](C(=O)N1Cc2cc(NC(=O)CCc3ccc(C(=O)N[C@H]4C[C@@H](C(=O)N[C@@H]5CCCc6ccccc65)N(C(=O)[C@@H](NC(=O)[C@H](C)NC)C(C)(C)C)C4)cc3)ccc2C[C@H]1C(=O)N[C@@H]1CCCc2ccccc21)C(C)(C)C [Example 8]

>  <numeric.result>
7.24

$$$$
>  <compound>
CN[C@@H](C)C(=O)N[C@H](C(=O)N1Cc2cc(NC(=O)c3ccc(C(=O)Nc4ccc5c(c4)CN(C(=O)[C@@H](NC(=O)[C@H](C)NC)C(C)(C)C)[C@H](C(=O)N[C@H](C)c4ccccc4F)C5)cc3)ccc2C[C@H]1C(=O)N[C@H](C)c1ccccc1F)C(C)(C)C [Example 12]

>  <numeric.result>
6.89

$$$$

Next, consider the following compound.
Inquiry: Recorded pIC50 for CN[C@@H](C)C(=O)N[C@H](C(=O)N1Cc2cc(NC(=O)c3cccc(CO[C@H]4C[C@@H](C(=O)N[C@@H]5CCCc6ccccc65)N(C(=O)[C@@H](NC(=O)[C@H](C)NC)C(C)(C)C)C4)c3)ccc2C[C@H]1C(=O)N[C@@H]1CCCc2ccccc21)C(C)(C)C [Example 52] , please?
Reply text: 7.38

----------
- test.target: N-His-Tb-BIR3 (241-356, XIAP) (Homo sapiens (Human))
- assay: biochemical
- Type: binding
- reported.conditions: fluoresceinated modified SMAC peptide, fluorescence polarization; read-out: XIAP BIR3 FPA IC50
measured.parameter: IC50 (nM)
Expressed in nM, but write only the number.

Please review the following examples before continuing.
>  <molecule>
CN[C@@H](C)C(=O)N[C@H](C(=O)N1Cc2cc(NCc3ccc(C(=O)N[C@H]4C[C@@H](C(=O)N[C@@H]5CCCc6ccccc65)N(C(=O)[C@@H](NC(=O)[C@H](C)NC)C(C)(C)C)C4)cc3Cl)ccc2C[C@H]1C(=O)N[C@@H]1CCCc2ccccc21)C(C)(C)C

>  <IC50, nM>
66

$$$$
>  <molecule>
CN[C@@H](C)C(=O)N[C@H](C(=O)N1Cc2cc(OC(=O)c3ccc(CO[C@H]4C[C@@H](C(=O)N[C@@H]5CCCc6ccccc65)N(C(=O)[C@@H](NC(=O)[C@H](C)NC)C(C)(C)C)C4)cc3)ccc2C[C@H]1C(=O)N[C@@H]1CCCc2ccccc21)C(C)(C)C

>  <IC50, nM>
92

$$$$
>  <molecule>
CN[C@@H](C)C(=O)N[C@H](C(=O)N1Cc2ccc(OCc3ccc(C(=O)N[C@H]4C[C@@H](C(=O)N[C@@H]5CCCc6ccccc65)N(C(=O)[C@@H](NC(=O)[C@H](C)NC)C(C)(C)C)C4)cc3)cc2C[C@H]1C(=O)N[C@@H]1CCCc2ccccc21)C(C)(C)C

>  <IC50, nM>
65

$$$$
>  <molecule>
CN[C@@H](C)C(=O)N[C@H](C(=O)N1C[C@@H](NC(=O)c2ccc(C(=O)Nc3ccc4c(c3)CN(C(=O)[C@@H](NC(=O)[C@@H](NC)C(C)C)C(C)(C)C)[C@H](C(=O)N[C@@H]3CCCc5ccccc53)C4)cc2)C[C@H]1C(=O)N[C@@H]1CCCc2ccccc21)C(C)(C)C

>  <IC50, nM>
200

$$$$
>  <molecule>
CN[C@@H](C)C(=O)N[C@H](C(=O)N1Cc2cc(C(=O)Nc3ccc(C(=O)N[C@H]4C[C@@H](C(=O)N[C@@H]5CCCc6ccccc65)N(C(=O)[C@@H](NC(=O)[C@H](C)NC)C(C)(C)C)C4)cc3)ccc2C[C@H]1C(=O)N[C@@H]1CCCc2ccccc21)C(C)(C)C

>  <IC50, nM>
73

$$$$
>  <molecule>
CN[C@@H](C)C(=O)N[C@H](C(=O)N1Cc2cc(N(Cc3ccc(C(=O)N[C@H]4C[C@@H](C(=O)N[C@@H]5CCCc6ccccc65)N(C(=O)[C@@H](NC(=O)[C@H](C)NC)C(C)(C)C)C4)cc3)C(C)=O)ccc2C[C@H]1C(=O)N[C@@H]1CCCc2ccccc21)C(C)(C)C

>  <IC50, nM>
35

$$$$

Next, consider the following molecule.
Inquiry: Find the measured IC50: item CN[C@@H](C)C(=O)N[C@H](C(=O)N1Cc2cc(NC(=O)c3ccc4ccn(C(=O)NC5C[C@@H](C(=O)NC6CCCc7ccccc76)N(C(=O)[C@@H](NC(=O)[C@H](C)NC)C(C)(C)C)C5)c4c3)ccc2C[C@H]1C(=O)NC1CCCc2ccccc21)C(C)(C)C (stereo partly shown) , target or system N-His-Tb-BIR3 (241-356, XIAP) (Homo sapiens (Human)).
Reply text: 140

Entry source: patent US9783573B2
